# Measured On: Receptor-type tyrosine-protein kinase FLT3 (Homo sapiens)
# Sequence (P36888 whole entry): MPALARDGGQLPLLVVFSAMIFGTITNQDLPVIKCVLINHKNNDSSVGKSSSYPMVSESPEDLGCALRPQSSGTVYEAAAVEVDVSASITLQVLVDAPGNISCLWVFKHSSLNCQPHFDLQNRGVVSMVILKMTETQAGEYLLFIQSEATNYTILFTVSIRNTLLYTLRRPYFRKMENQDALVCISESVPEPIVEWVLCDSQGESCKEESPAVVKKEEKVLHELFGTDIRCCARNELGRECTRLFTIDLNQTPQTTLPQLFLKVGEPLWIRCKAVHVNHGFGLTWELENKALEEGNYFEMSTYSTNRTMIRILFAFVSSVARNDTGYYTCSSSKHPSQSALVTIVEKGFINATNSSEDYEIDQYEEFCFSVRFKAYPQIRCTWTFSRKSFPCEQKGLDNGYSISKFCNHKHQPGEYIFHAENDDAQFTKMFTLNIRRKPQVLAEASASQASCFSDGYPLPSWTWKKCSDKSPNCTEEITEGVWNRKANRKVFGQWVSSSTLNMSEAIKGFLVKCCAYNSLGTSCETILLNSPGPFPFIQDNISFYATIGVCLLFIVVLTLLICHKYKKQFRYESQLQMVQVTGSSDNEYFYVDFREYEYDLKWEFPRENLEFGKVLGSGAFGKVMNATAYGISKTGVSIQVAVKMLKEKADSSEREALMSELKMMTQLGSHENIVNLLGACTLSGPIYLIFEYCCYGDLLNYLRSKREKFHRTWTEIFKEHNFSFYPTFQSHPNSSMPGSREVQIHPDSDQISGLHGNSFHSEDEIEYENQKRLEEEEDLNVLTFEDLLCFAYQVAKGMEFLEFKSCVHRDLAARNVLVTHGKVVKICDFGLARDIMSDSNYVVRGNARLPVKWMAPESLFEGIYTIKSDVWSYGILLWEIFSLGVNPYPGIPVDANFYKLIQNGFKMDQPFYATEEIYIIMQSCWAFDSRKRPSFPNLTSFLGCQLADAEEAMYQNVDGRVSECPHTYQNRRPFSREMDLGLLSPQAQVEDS
Measure Name: IC50 (nM)
Express your answer in nM, writing the number without its unit.

Item COc1cc2c(Oc3ccc(NC(=O)c4c(Cl)c5ccccc5n(-c5ccc(F)cc5)c4=O)cc3F)ccnc2cc1OCCCN1CCN(C)CC1 with Receptor-type tyrosine-protein kinase FLT3 (Homo sapiens) - IC50?
2.15

----------
# Tested on: A549
# Experiment: Cytotoxicity against human A549 cells assessed as cell growth inhibition after 72 hrs by MTT assay
# Format: functional, cell-based
# Test Parameters: A549, 72 h
Threshold check on IC50: strictly below 300 nM is rule met; on or above 300 nM is rule not met.

Use these answered entries as a reference point.
INSERT INTO assay_data (smiles_data, group_label) VALUES
  ('COc1cc2c(Oc3ccc(NC(=O)c4c(Cl)c5ccccc5n(-c5ccc(C)cc5)c4=O)cc3F)ccnc2cc1OCCCN1CCC(C)CC1', 'rule not met'),
  ('COc1cc2c(Oc3ccc(NC(=O)c4c(Cl)c5ccccc5n(-c5ccc(F)cc5)c4=O)cc3F)ccnc2cc1OCCCN1CCC(C)CC1', 'rule not met'),
  ('COc1cc2c(Oc3ccc(NC(=O)c4c(Cl)c5ccccc5n(-c5ccc(F)cc5)c4=O)cc3F)ccnc2cc1OCCCN1CCN(C)CC1', 'rule met'),
  ('COc1cc2c(Oc3ccc(NC(=O)c4c(Cl)c5ccccc5n(-c5ccccc5F)c4=O)cc3F)ccnc2cc1OCCCN1CCN(C)CC1', 'rule met'),
  ('COc1cc2c(Oc3ccc(NC(=O)c4c(Cl)c5ccccc5n(-c5ccc(F)cc5)c4=O)cc3F)ccnc2cc1OCCCN1CCCC1', 'rule not met');

Please check: IC50 for COc1cc2c(Oc3ccc(NC(=O)c4c(Cl)c5ccccc5n(-c5ccc(F)cc5)c4=O)cc3F)ccnc2cc1OCCCN1CCCCC1 , strictly under 300 nM or not?
rule met

Please check: IC50 for COc1cc2c(Oc3ccc(NC(=O)c4c(Cl)c5ccccc5n(-c5ccccc5)c4=O)cc3F)ccnc2cc1OCCCN1CCCCC1 , strictly under 300 nM or not?
rule not met
